# testedSystem: Tryptase, from human lung (human, UniProt Q15661 31-275, limits assumed)
# Sequence (Q15661 31-275 limits assumed): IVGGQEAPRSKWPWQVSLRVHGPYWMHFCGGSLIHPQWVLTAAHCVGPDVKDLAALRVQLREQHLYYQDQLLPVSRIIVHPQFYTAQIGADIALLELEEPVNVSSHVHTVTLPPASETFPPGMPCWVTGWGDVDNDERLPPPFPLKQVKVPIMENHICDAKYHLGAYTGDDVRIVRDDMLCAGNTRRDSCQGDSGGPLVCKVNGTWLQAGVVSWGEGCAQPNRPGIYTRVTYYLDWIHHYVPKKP
# experimentalDetails: cell-based or functional assay
metric: % inhibition at 100 µM (%)
Note: unit % is implicit; provide only the numeric part.

- binder: "XCTKSDPPICN (HELM PEPTIDE1{[O=C([C@@H](N[*:1])C1CCCCC1)[*:2]].C.T.K.S.D.P.P.I.C.N.[dP].P}$PEPTIDE1,PEPTIDE1,2:R3-10:R3|PEPTIDE1,PEPTIDE1,1:R1-13:R2$$$V2.0; SMILES CC[C@H](C)[C@@H]1NC(=O)[C@@H]2CCCN2C(=O)[C@@H]2CCCN2C(=O)[C@H](CC(=O)O)NC(=O)[C@H](CO)NC(=O)[C@H](CCCCN)NC(=O)[C@H]([C@@H](C)O)NC(=O)[C@@H]2CSSC[C@H](NC1=O)C(=O)N[C@@H](CC(N)=O)C(=O)N1CCC[C@@H]1C(=O)N1CCC[C@H]1C(=O)N[C@@H](C1CCCCC1)C(=O)N2) [Example 37]"
  outputUnit: "%"
  % inhibition at 100 µM: 56

As a next step, examine the binder that follows.
Reported % inhibition at 100 µM for FCTKSDPPICS (HELM PEPTIDE1{F.C.T.K.S.D.P.P.I.C.S.[dP].P}$PEPTIDE1,PEPTIDE1,2:R3-10:R3|PEPTIDE1,PEPTIDE1,1:R1-13:R2$$$V2.0; SMILES CC[C@H](C)[C@@H]1NC(=O)[C@@H]2CCCN2C(=O)[C@@H]2CCCN2C(=O)[C@H](CC(=O)O)NC(=O)[C@H](CO)NC(=O)[C@H](CCCCN)NC(=O)[C@H]([C@@H](C)O)NC(=O)[C@@H]2CSSC[C@H](NC1=O)C(=O)N[C@@H](CO)C(=O)N1CCC[C@@H]1C(=O)N1CCC[C@H]1C(=O)N[C@@H](Cc1ccccc1)C(=O)N2) [Example 4] was 0

Taken from patent US20140213531A1.
